- Tested on: human ventricular cardiac tissue strips (hvCTS)
- ASSAY_COMMENT: hvCTS drug screening: twitch force under electrical pacing
- Assay type: cell-based
- MEASUREMENT_PARAMETERS: Homo sapiens, 1 Hz pacing; Example 2; read-out: EC50, developed contractile force
OBSERVATION_TYPE: pEC50
Expect pEC50 as a plain number equal to -log10 of the molar concentration.

Input: Quick check: pEC50 of CC(C)NCC(O)c1ccc(O)c(O)c1 (stereo not shown) ?
Output: 7.23

---

The reader will find reported EC50 values listed item by item below.
- Tested on: human ventricular cardiac tissue strips (hvCTS)
- ASSAY_COMMENT: hvCTS drug screening: twitch force under electrical pacing
- Assay type: cell-based
- MEASUREMENT_PARAMETERS: Homo sapiens, 1 Hz pacing; unblinded screening, Example 3; read-out: EC50, developed contractile force
The response must be a number in nM with no trailing unit.

{"COMPOUND": "C[C@@H]1CC(=O)NN=C1c1ccc(NN=C(C#N)C#N)cc1 [Levosimendan]", "EC50 [nM]": 150}
{"COMPOUND": "CC(CCc1ccc(O)cc1)NCCc1ccc(O)c(O)c1 (stereo not shown) [Dobutamine]", "EC50 [nM]": 15}
{"COMPOUND": "CC(C)N(CCC(C(N)=O)(c1ccccc1)c1ccccn1)C(C)C (stereo not shown) [Disopyramide]", "EC50 [nM]": 80000}
{"COMPOUND": "COc1ccc(Cl)cc1C(=O)NCCc1ccc(S(=O)(=O)NC(=O)NC2CCCCC2)cc1 [Glibenclamide]", "EC50 [nM]": 930}
{"COMPOUND": "O=C(NCC1CCCCN1)c1cc(OCC(F)(F)F)ccc1OCC(F)(F)F (stereo not shown) [Flecainide]", "EC50 [nM]": 75000}
{"COMPOUND": "Cc1[nH]c(=O)c(C#N)cc1-c1ccncc1 [Milrinone]", "EC50 [nM]": 410}

Let us examine a further case.
Input: Could you tell me which EC50 is on file for CC(C)NCC(O)c1ccc(O)c(O)c1 (stereo not shown) [Isoproterenol] ?
Output: 150
